Experiment: in vitro
Conditions: human, permeability
MEASUREMENT KIND: Papp A→B at 1 h (×10⁻⁶ cm/s)

[1] CC[C@]1(O)C[C@H]2CN(CCc3c([nH]c4ccccc34)[C@@](C(=O)OC)(c3cc4c(cc3OC)N(C=O)[C@H]3[C@@](O)(C(=O)OC)[C@H](OC(C)=O)[C@]5(CC)C=CCN6CC[C@]43[C@@H]65)C2)C1
[2] COc1cc2nc(N3CCN(C(=O)c4ccco4)CC3)nc(N)c2cc1OC
Problem: Determine, for 1 and 2 , which has the greater value of Papp A→B at 1 h. Label of pick, please.
Solution: 2
(2: 1.83 ×10⁻⁶ cm/s, 1: 0.433 ×10⁻⁶ cm/s)
